target: MAGE-A11:PCF11 interaction (GST-MAGE-A11 and FAM-PCF11_4) (Homo sapiens); construct: GST-MAGE-A11 MHD (human MAGE-A11 MHD amino acid 218-429); made in house; host or cells: E. coli BL21(DE3); assay: TR-FRET primary / single point screen at 15 µM; format: binding; conditions: single point TR-FRET screening of quinoline compounds against MAGE-A11:PCF11; 15 µM
Sequence (P43364 218-429): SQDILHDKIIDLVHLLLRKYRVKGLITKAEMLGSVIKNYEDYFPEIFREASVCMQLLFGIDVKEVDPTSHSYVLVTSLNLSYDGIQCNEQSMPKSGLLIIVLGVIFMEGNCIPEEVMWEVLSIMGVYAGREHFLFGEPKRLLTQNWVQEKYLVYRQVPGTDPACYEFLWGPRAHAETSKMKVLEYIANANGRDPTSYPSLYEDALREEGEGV

compound | percent inhibition (TR-FRET)
Cn1ccnc1CNCCCNc1ccnc2cc(C(F)(F)F)ccc12 [SJ000521068] | 10.1938
CCC(C)CNCCCNc1ccnc2cc(Cl)ccc12 (stereo not shown) [SJ000361104] | 9.822
CCCNCCCNc1ccnc2cc(Cl)ccc12 [SJ000361119] | 9.7847
Cc1ccc(CNCCCNc2ccnc3cc(Cl)ccc23)o1 [SJ000311326] | 10.2048
